- Test system: SN12C renal
- protocol: NCI tumour cell line growth inhibition, 48 h; in the data active = GI50 below about 0.43 µM; inactive = the rest
Result category, one only: yes (active), no (inactive)

Check out these entries, answers already filled in.
compound | class.assignment
C/C=C(\C)C(=O)O[C@H]1C=CC(=O)O[C@H]1CCC(=O)[C@H](C)O | no
O=C(O)COc1ccc2c(=O)c3sc4c(=O)c5ccccc5c(=O)c4c3c(=O)c2c1 | no
Cc1cc(Cl)cc(OCCn2cc(F)cn2)c1-c1nc(N)nc2c1CN(C(=O)NCC(C)(F)F)C2 | yes

Data request: Dear colleague, could you share the recorded outcome for S=C(Nc1ccc(Cl)cc1)Nc1ccc(-c2nc3ccccc3s2)cc1 when you have a moment?
Data returned: no

Data request: Per the assay record, what outcome was assigned to COc1ccccc1/C=N\N/C(N)=N\N=C\c1ccccc1OC ?
Data returned: no

Data request: Please indicate how the test categorized COc1cccc(CC(C)=C(c2ccc(OCCN(C)C)cc2)c2ccc(OCCN(C)C)cc2)c1 .
Data returned: no

Data request: Call for entry C#CCOc1cccc(-c2ncc3cc(NC(=O)CCl)ccc3n2)c1 :
Data returned: no
